pIC50: −log10 of the molar value.
Entries with their measured pIC50, system UniProt:P17931:

- compound: "CO[C@@H]1[C@@H](n2cc(-c3ccc(Cl)c(F)c3F)nn2)[C@@H](O)[C@@H](CO)O[C@@H]1Cc1cn(C2CCC2(F)F)nn1 (single isomer, unassigned) [Example 2.1.63.B]"
  pIC50: 7.40
- compound: "CO[C@@H]1[C@@H](n2cc(-c3ccc(F)c(F)c3F)nn2)[C@@H](O)[C@@H](CO)O[C@@H]1Cc1cn(C2CCC23CCC3)nn1 (stereo partly drawn)"
  pIC50: 7.30
- compound: "CO[C@@H]1[C@@H](n2cc(-c3ccc(C)c(F)c3F)nn2)[C@@H](O)[C@@H](CO)O[C@@H]1Cc1cn(C2(CCO)COC2)nn1"
  pIC50: 7.40
- compound: "CO[C@@H]1[C@@H](n2cc(-c3ccc(Cl)c(F)c3F)nn2)[C@@H](O)[C@@H](CO)O[C@@H]1Cc1cn(C(C)(C)CF)nn1"
  pIC50: 7.40
- compound: "CO[C@@H]1[C@@H](n2cc(-c3ccc(C)c(F)c3F)nn2)[C@@H](O)[C@@H](CO)O[C@@H]1Cc1cn(C2(CO)CC2)nn1"
  pIC50: 7.40
- compound: "CO[C@@H]1[C@@H](n2cc(-c3ccc(Cl)c(F)c3F)nn2)[C@@H](O)[C@@H](CO)O[C@@H]1Cc1cn(C(C)(C)C(F)F)nn1"
  pIC50: 7.40
